meta.source: patent US20210355105A1

EXPERIMENT_NOTES: Pharmacokinetics assay in MiaPaca 2 tumor-bearing mice (plasma, tumor tissue, intestine)
Assay type: in vivo
CONDITION_NOTES: female, mouse, Tumor, oral 6 mg/kg
MEASUREMENT_KIND: half-life (h)
Note: unit h is implicit; provide only the numeric part.

Input line: Specify measured half-life for "Nc1nc(N2CCC3(CC2)Cc2ccccc2[C@H]3N)c(F)nc1Sc1ccnc(N)c1Cl" .
Output line: 11.5

----------
EXPERIMENT_NOTES: Pharmacokinetics assay in mice, single intravenous injection
Format: in vivo
CONDITION_NOTES: mouse, iv; male Balb/c mice, i.v. 1 mg/kg, plasma
MEASUREMENT_KIND: half-life (h)
Note: unit h is implicit; provide only the numeric part.

Input line: Specify measured half-life for Nc1nc(N2CCC3(CC2)Cc2ccccc2[C@H]3N)c(F)nc1Sc1ccnc(N)c1Cl [Example 179] .
Output line: 7.74
